Could you please report measured TGI for the items listed next?
Test system: SR leukemia
Experiment Summary: NCI tumour cell line growth inhibition, 48 h
Peptide text beside a SMILES is read from it. * marks the point of attachment. Cbz = O=C(OCc1ccccc1)*

Task item: Reported TGI for O=C1NC(=O)C23C(=O)NC(=O)C12C1C=CC3CC1 (stereo unspecified) : what is it?
Reply: > 10 µM

Task item: Name the recorded TGI for "OCCCN=C1N=C(Cl)/C(=C\c2ccccc2)N1" .
Reply: > 100 µM

Task item: Item "CSc1ccc(NC(=O)CCl)cc1" has what recorded TGI?
Reply: > 10 µM

Task item: // query TGI value for entry "CCOC(=O)COc1cc(-c2ccccc2)nc2cc(F)ccc12"
Reply: > 100 µM

Task item: Which measured TGI value corresponds to CCCCCCCCCCCCCCCCCCOC(COP(=O)(O)OCC1OC(n2cc(F)c(=O)[nH]c2=O)CC1O)COP(=O)(O)OCC1OC(n2ccc(N)nc2=O)C(O)C1O (stereo unspecified) ?
Reply: > 100 µM

Task item: Consider the compound CCOC(=O)CCC(NC(=O)CNC(=O)CNC(=O)C(CCC(=O)OCC)NC(=O)C(CCC(=O)OCC)NC(=O)C(CCC(=O)OCC)NC(=O)OCc1ccccc1)C(=O)NC(CCC(=O)OCC)C(=O)NC(CCC(=O)OCC)C(=O)OCC (stereo unspecified) (Cbz-E(OEt)E(OEt)E(OEt)GGE(OEt)E(OEt)E(OEt)-OEt; configuration not given here) and give its measured TGI.
Reply: > 75 µM

---

Test system: ACHN renal
Experiment Summary: NCI tumour cell line growth inhibition, 48 h
Measurement Type: TGI

Task item: Which TGI value is on record for O=CCC(O)C(O)C(O)CO (stereo not drawn) ?
Reply: > 100 µM

Task item: Would you kindly share the measured TGI for "COc1cc(S(=O)(=O)Nc2ccc(-c3csc(/N=C\c4cccc(Oc5ccccc5)c4)n3)cc2)ccc1Cl" ?
Reply: 71.8 µM

Task item: I have this compound here, "Cc1c(-c2cc(-c3ccccc3)n[nH]c2=O)c2ccccc2n1C" , and I need its recorded TGI.
Reply: > 100 µM

Task item: Look up TGI for this compound: "O=C(/C=C/c1cc(O)ccc1O)c1ccc(Cl)cc1"
Reply: > 100 µM

Task item: What measured TGI goes with "Cc1c2ccccc2cc2cccc[n+]12" ?
Reply: > 100 µM

Task item: Look up TGI: "N#CC(C#N)[C@@H]1CCC=C(Sc2ccccc2)[C@H]1Sc1ccccc1"
Reply: 6.07 µM

Task item: Reported TGI, compound "O=C1c2ccccc2-c2c1c1ccc([N+](=O)[O-])cc1c(=O)n2CCN1CCOCC1" : ____
Reply: > 100 µM

Task item: Sample NC1=C(/C(N)=N/O)C(c2ccccc2)c2ccc3ccccc3c2O1 (stereo not drawn) — what was its TGI?
Reply: 51.1 µM

Task item: Dear colleague, I am looking for the recorded TGI of the following compound: "CC(=O)OCc1ncccc1C(OC(C)=O)OC(C)=O"
Reply: > 100 µM

Task item: # get_value(readout='TGI', item= CC(C)C(=O)CC(c1ccc(Br)cc1)N1N=C(C(C)C)CC1c1ccc(Br)cc1 (stereo not drawn) )
Reply: > 100 µM

Task item: What measured TGI goes with "Cc1ccc([N+](=O)[O-])cc1NC(=O)/C(CC(=O)c1sc(C(N)=S)nc1C)=N\N" ?
Reply: > 100 µM

Task item: // returns reported TGI for input O=C(O)C(C(F)(F)F)C(F)(F)F (tested in a mixture with another compound)
Reply: > 100 µM

Task item: Please report the recorded TGI for "NC1=CC(=O)C(=O)c2ccccc21" .
Reply: 50.1 µM

Task item: Give the measured TGI of COC(=O)[C@H]1C2CC[C@@H]3C45C[C@@H](c6ccoc6)O[C@@H]4O[C@@H](O2)C31CCC5C (stereo partly drawn) .
Reply: > 100 µM

Task item: Looking for the measured TGI of "Oc1cc(F)cc2cccnc12" , can you help?
Reply: > 92.1 µM

Task item: Fill in the blank: the reported TGI of N#CCc1ccccc1/C(C#N)=C1/OC(=N)C(c2ccccc2CC#N)C1=O (stereo not drawn) is ____.
Reply: > 100 µM

Task item: Any idea what its TGI is? The compound is "Oc1ccc(Cl)cc1C1=Nn2c(COc3ccc4c(c3)CCCC4)nnc2SC1"
Reply: 49.7 µM

Task item: Given "O=C1/C(=C/c2ccc([N+](=O)[O-])cc2)Sc2scc(-c3cccc([N+](=O)[O-])c3)[n+]21" , state its recorded TGI.
Reply: 14 µM

Task item: Given the entry Cc1nc2sc(C(=O)Nc3cccc(Cl)c3C)c(N)c2cc1C(O)c1ccccc1 (stereo not drawn) , report its measured TGI.
Reply: 14.8 µM

Task item: Fill in: TGI of "CCOC(=O)C1=C(Nc2cccc3ccccc23)OCC1=O" is ___
Reply: > 100 µM

Task item: Name the recorded TGI for "Nc1ccccc1-n1c2c(c3ccccc3c1=O)C(=O)c1ccccc1-2" .
Reply: 18.3 µM

Task item: What does the record list as TGI for "CN1CCN(c2ccc(NC(=O)c3cncnc3Nc3ccc4c(ccn4Cc4cccc(F)c4)c3)cc2)CC1" ?
Reply: 5.89 µM

Task item: What value of TGI has been recorded for this entry: "COc1cc2c3c(n(CCCN=[N+]=[N-])c(=O)c2cc1OC)-c1ccc(NC(C)=O)cc1C3=O"
Reply: > 50 µM

Task item: Sample C=CCC(O)c1cc(OC)ccc1OC (stereo not drawn) — what was its TGI?
Reply: > 100 µM

Task item: For the compound "CCCCc1n(Cc2ccc3ccccc3n2)cc[n+]1Cc1ccc2ccccc2c1" , what TGI is on record?
Reply: 8.8 µM

Task item: Request the reported TGI associated with "c1cc2nnc1SCCSCCCSCCS2"
Reply: > 100 µM

Task item: I'd like to know its TGI. The compound in question is "O=c1[nH]nc(Cc2ccc(Cl)cc2)n1CCO"
Reply: > 100 µM

Task item: So what's the measured TGI for this one? "Cc1cc(=O)[nH]c(S(=O)(=O)NC(=O)Nc2cccc(Cl)c2)n1"
Reply: > 100 µM

Task item: So what does the record say about TGI for COC(=O)C1OC(SCCN)C(O)C(O)C1O (stereo not drawn) ?
Reply: > 100 µM

Task item: Please look up its TGI: CCC1C[N+]2=C(c3cc(OC)c(OC)cc3CC2)c2c1cc1n2CCc2cc(OC)c(OC)cc2-1 (stereo not drawn)
Reply: 30.1 µM

Task item: For the compound "COC(=O)CCC(=O)Nc1cc(C)ccc1C" , what TGI is on record?
Reply: > 100 µM

Task item: Suppose we examine the compound "CC1=C(C(=O)NCc2ccccc2)C(c2ccc(N(C)C)cc2)C(C(=O)NCc2ccccc2)=C(C)N1" ; what TGI value has been reported?
Reply: > 100 µM

Task item: Report TGI for "C#C[C@]1(O)[C@@H](CO)O[C@@H](n2ccc(=O)[nH]c2=O)[C@@H]1O" please.
Reply: 0.602 µM
